Just for reference, patent US20090048301A1 is where these values come from.

minimal effective concentration values for the molecules below.
# Tested on: A431, human epidermoid carcinoma cells
# Experiment Summary: Cell cycle analysis (FACS), mitotic arrest in G2/M
# Assay type: cell-based
# Assay Setup: Homo sapiens, A-431, 24 h, read-out: FACS Assay: concentration required to achieve inhibition in FACS assay
Readout: minimal effective concentration (µM)

1) Brc1ccc(-c2nnc(-c3ccccc3NCc3ccc4[nH]ncc4c3)[nH]2)cc1 [Compound 145]; 0.1
2) Fc1ccc(CNc2ncccc2-c2nnc(Nc3ccc4c(c3)OCCO4)o2)cc1 [Compound 169]; 0.1
3) CS(=O)(=O)c1ccc(-c2nnc(-c3cccnc3NCc3ccc4c(c3)OCO4)[nH]2)cc1 [Compound 77]; 10
4) COc1cc(CNc2ccccc2-c2nnc(Nc3ccc4c(c3)OCCO4)o2)cc(OC)c1 [Compound 219]; 0.1
5) c1cnc(Nc2ccc3c(c2)OCO3)c(-c2nnc(Nc3ccc4c(c3)OCO4)[nH]2)c1 [Compound 32]; 10
6) CS(=O)(=O)c1ccc(-c2nnc(-c3cccnc3NCc3ccc4c(c3)CCO4)[nH]2)cc1 [Compound 97]; 1
7) COc1cc(Nc2ncccc2-c2nnc(Nc3ccc4c(c3)OCO4)o2)cc(OC)c1 [Compound 177]; 0.01
8) Fc1ccc(CNc2ncccc2-c2nnc(Nc3ccc4c(c3)OCCO4)o2)cc1F [Compound 161]; 0.1

---

# Tested on: bovine tubulin
# Experiment Summary: In vitro tubulin polymerization assay (turbidity at 340 nm)
# Assay type: biochemical
# Assay Setup: 10 μM compound, 30 minute data point, vs 1% DMSO control
The following compounds are shown together with reported Tubulin Assay: percent inhibition at 10 μM based on 30 minute data values.
Readout: Tubulin Assay: percent inhibition at 10 μM based on 30 minute data (%)

1) COc1cc(Nc2ncccc2-c2nnc(Nc3cccc(N)c3)[nH]2)cc(OC)c1 [Compound 60b]; 39
2) Brc1ccc(-c2nnc(-c3ccccc3NCc3ccc4cn[nH]c4c3)[nH]2)cc1; 39
3) COc1cccc(-c2nnc(-c3cccnc3NCc3ccc(F)c(F)c3)[nH]2)c1; 70

---

# System: bovine tubulin
# Experiment Summary: In vitro tubulin polymerization assay (turbidity at 340 nm)
# Type: biochemical
# Assay Setup: 10 μM compound, 30 minute data point, vs 1% DMSO control
Entries and their Tubulin Assay: percent inhibition at 10 μM based on 30 minute data
Readout: Tubulin Assay: percent inhibition at 10 μM based on 30 minute data (%)

1) COc1cc(CNc2cc(N3CCN(C)CC3)ccc2-c2nnc(Nc3ccc4c(c3)OCCO4)o2)cc(OC)c1; 24
2) Fc1ccc(-c2nnc(-c3cccnc3NCc3ccc4c(c3)OCO4)[nH]2)cc1Cl; 20
3) Fc1ccc(OCc2nnc(-c3cccnc3NCc3ccc4c(c3)OCO4)[nH]2)cc1; 41
4) c1coc(CNc2ncccc2-c2nnc(Nc3ccc4c(c3)OCO4)o2)c1; 90
5) COc1cc(Nc2ncccc2-c2nc(Nc3ccc4c(c3)OCCO4)n(C)n2)cc(OC)c1; 76
6) c1cnc(NCc2ccc3c(c2)CCO3)c(-c2nnc(Nc3ccc4c(c3)OCO4)o2)c1; 87
7) CS(=O)(=O)c1ccc(-c2nnc(-c3ccc(C(F)(F)F)cc3NCc3ccncc3)[nH]2)cc1; 54
8) COc1cc(Nc2ncccc2-c2nnc(Nc3ccc(N(C)C)cc3)[nH]2)cc(OC)c1; 35
9) CS(=O)(=O)c1ccc(-c2nnc(-c3cccnc3NCCCN3CCCC3=O)[nH]2)cc1; 60
10) COc1ccc(CNc2ncccc2-c2nnc(Nc3ccc(OC)c(OC)c3)o2)cc1OC; 53
11) COc1cc(Nc2ncccc2-c2nnc(Nc3cccc(NCc4ccco4)c3)[nH]2)cc(OC)c1; 73
12) CN1CCN(c2ccc(-c3nnc(Nc4ccc5c(c4)OCCO5)o3)c([N+](=O)[O-])c2)CC1; 59
13) CN(C)c1ccc(Nc2nnc(-c3cccnc3Nc3ccc4cn[nH]c4c3)[nH]2)cc1; 24
14) Brc1cnn(-c2ncccc2-c2nnc(Nc3ccc4c(c3)OCO4)o2)c1; 87
15) COc1cc(CNc2ncccc2-c2nnc(Nc3ccc(OC)cc3OC)[nH]2)cc(OC)c1; 20
16) Fc1ccc(CNc2ncccc2-c2nnc(Nc3ccc4c(c3)OCCO4)[nH]2)cc1F; 84
17) Fc1cccc(-c2nnc(-c3cccnc3NCc3ccc4c(c3)OCO4)[nH]2)c1; 30
18) FC(F)(F)Oc1cccc(-c2nnc(-c3ccccc3NCc3ccc4[nH]cnc4c3)[nH]2)c1; 86
19) COc1ccc(Nc2nnc(-c3cccnc3NCc3ccc4c(c3)OCO4)[nH]2)c(OC)c1; 80
20) FC(F)(F)c1cccc(-c2nnc(-c3cccnc3NCc3ccco3)[nH]2)c1; 20
21) c1ccc(-c2nnc(Nc3ccc4c(c3)OCCO4)o2)c(NCc2cnccn2)c1; 80
